- target under test: Adenosine receptor A2a (Rattus norvegicus)
- Sequence (P30543 whole entry): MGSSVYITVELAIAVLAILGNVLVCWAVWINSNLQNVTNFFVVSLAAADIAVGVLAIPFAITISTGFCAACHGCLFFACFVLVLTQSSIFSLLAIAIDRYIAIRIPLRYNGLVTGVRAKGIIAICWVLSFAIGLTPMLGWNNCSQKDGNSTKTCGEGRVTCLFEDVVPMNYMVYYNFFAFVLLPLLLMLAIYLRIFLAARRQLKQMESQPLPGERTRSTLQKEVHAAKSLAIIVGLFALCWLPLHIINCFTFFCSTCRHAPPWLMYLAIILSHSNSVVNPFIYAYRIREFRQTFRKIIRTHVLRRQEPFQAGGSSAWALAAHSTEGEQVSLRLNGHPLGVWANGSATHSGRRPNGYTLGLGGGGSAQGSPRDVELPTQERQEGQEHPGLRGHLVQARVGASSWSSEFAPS
- test description: Displacement of [3H]-NECA from Adenosine A2A receptor in Sprague-Dawley rat striatal membranes
- Parameters: species or system Striatum, Membrane
pKi: −log10 of the molar value.
recorded metric: pKi

Answered examples (5):
Cn1c(=O)c2c(nc(COc3ccccc3)n2C)n(C)c1=O; 5.63
CCn1c(CCCc2ccccc2)nc2c1c(=O)n(C)c(=O)n2C; 5.31
CCn1c(CCc2ccccc2)nc2c1c(=O)n(C)c(=O)n2C; 5.51
CCn1c(=O)c2c(nc(CCc3ccccc3)n2C)n(CC)c1=O; 5.63
CCn1c(=O)c2c(nc(CCCc3ccccc3)n2C)n(CC)c1=O; 5.41

P. CCn1c(=O)c2c(nc(CCc3ccccc3)n2CC)n(CC)c1=O
Q. CCn1c(=O)c2c(nc(CCCc3ccccc3)n2CC)n(CC)c1=O
R. OC[C@H]1O[C@@H](n2cnc3c(NC4CCCC4)ncnc32)[C@H](O)[C@@H]1O
Q. Rank order required: pKi, descending. Return the labels ranked in the requested order, please.
A. R, Q, P

Reference for the values: ChEMBL document CHEMBL3616475
